Molecular target: T1, human serum albumin (human, UniProt P02768 25-609)
T1 construct: Immobilised by amine coupling on a C1 chip; also called HSA
T1 sequence (P02768 25-609 limits assumed): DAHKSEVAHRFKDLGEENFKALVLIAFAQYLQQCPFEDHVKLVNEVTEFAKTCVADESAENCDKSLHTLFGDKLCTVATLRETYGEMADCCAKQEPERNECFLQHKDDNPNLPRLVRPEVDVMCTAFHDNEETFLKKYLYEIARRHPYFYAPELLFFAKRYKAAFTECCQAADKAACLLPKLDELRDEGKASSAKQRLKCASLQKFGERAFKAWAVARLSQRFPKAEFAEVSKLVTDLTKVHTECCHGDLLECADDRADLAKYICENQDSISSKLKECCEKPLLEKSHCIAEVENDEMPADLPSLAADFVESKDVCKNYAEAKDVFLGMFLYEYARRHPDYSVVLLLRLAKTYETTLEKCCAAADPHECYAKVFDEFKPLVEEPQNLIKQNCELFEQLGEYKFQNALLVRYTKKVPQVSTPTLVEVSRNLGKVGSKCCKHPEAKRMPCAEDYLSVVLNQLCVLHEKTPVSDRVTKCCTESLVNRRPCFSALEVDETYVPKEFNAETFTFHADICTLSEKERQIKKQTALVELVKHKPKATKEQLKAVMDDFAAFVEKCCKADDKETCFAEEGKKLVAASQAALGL
Assay: SPR Biacore 8K+, HSA amine-coupled on C1 chip, ISVD analyte, 1:1 fit
Here the recorded kon is given for each entry.
Respond numerically; units are M⁻¹ s⁻¹ and should not be typed.

[
  {
    "BINDER": "T028501806 (VHH, K43E vs precursor T028501805; also called HSA006A06(K43E, K83R)) VHH: EVQLVESGGGVVQPGGSLRLSCAASGFTFRSFGMSWVRQAPGEGPEWVSSISGSGSDTLYADSVKGRFTISRDNSKNTLYLQMNSLRPEDTALYYCTIGGSLSRSSQGTLVTVSS",
    "READING": 856000
  },
  {
    "BINDER": "T028501813 (VHH, K75E vs precursor T028501805; also called HSA006A06(K75E, K83R)) VHH: EVQLVESGGGVVQPGGSLRLSCAASGFTFRSFGMSWVRQAPGKGPEWVSSISGSGSDTLYADSVKGRFTISRDNSENTLYLQMNSLRPEDTALYYCTIGGSLSRSSQGTLVTVSS",
    "READING": 514000
  },
  {
    "BINDER": "T028501814 (VHH, K75Q vs precursor T028501805; also called HSA006A06(K75Q, K83R)) VHH: EVQLVESGGGVVQPGGSLRLSCAASGFTFRSFGMSWVRQAPGKGPEWVSSISGSGSDTLYADSVKGRFTISRDNSQNTLYLQMNSLRPEDTALYYCTIGGSLSRSSQGTLVTVSS",
    "READING": 814000
  }
]

Now let's try a different one.
Lab note: T028501809 (VHH, K43A vs precursor T028501805; also called HSA006A06(K43A, K83R)) VHH: EVQLVESGGGVVQPGGSLRLSCAASGFTFRSFGMSWVRQAPGAGPEWVSSISGSGSDTLYADSVKGRFTISRDNSKNTLYLQMNSLRPEDTALYYCTIGGSLSRSSQGTLVTVSS gave kon of 769000
